- measured.on: T1, human APRIL protein (human, UniProt O75888 105-250, limits assumed)
- T1 construct: Bought protein; also called recombinant APRIL protein
- T1 sequence (looked up): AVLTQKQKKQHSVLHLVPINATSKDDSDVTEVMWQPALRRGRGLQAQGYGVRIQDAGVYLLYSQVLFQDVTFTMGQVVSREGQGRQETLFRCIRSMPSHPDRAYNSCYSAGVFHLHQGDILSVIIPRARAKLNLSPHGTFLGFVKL
- assay.remarks: ELISA, coated APRIL; antibody 0.0213 nM
reported.metric: OD450 nm
Keep it simple and answer with nothing but the number.

// below: answered binders
binder | result.number
97A3C2H4 (antibody, V domains shown, Mouse hybridoma antibody purified on Protein G) VH: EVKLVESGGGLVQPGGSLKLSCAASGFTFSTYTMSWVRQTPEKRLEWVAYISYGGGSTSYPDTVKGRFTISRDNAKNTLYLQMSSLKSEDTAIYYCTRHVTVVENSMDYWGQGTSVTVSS VL: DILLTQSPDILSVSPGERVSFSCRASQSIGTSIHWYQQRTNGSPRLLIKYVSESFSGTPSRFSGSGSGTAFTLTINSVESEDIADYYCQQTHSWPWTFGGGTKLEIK | 0.0559
2-1G11 (antibody, human IgG1, V domains shown) VH: EVQLVESRGGVVQPGRSLRLSCAASGFTFSSYGMHWVRQAPGKGLEWVAVISYDGSNKYYADSVKGRFTISRDNSKNTLYLQMNSLRAEDAAVYYCARDRVDILTGYSIYGMDVWGQGTTVTVSS VL: EIVMTQSPATLSLSPGERATLSCRASQSVSSYLAWYQQKPGQAPRLLIYDASKRATGIPARFSGSGSGTDFTLTISSLEPEDFAVYYCQQRSNWPLTFGGGTKVEIK | 0.0733

// next entry
q: Need OD450 nm, item 8E7D9C7F5 (antibody, V domains shown) VH: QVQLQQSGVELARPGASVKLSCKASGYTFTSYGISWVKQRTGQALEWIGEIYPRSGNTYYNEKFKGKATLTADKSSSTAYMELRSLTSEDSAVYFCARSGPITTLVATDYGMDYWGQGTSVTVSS VL: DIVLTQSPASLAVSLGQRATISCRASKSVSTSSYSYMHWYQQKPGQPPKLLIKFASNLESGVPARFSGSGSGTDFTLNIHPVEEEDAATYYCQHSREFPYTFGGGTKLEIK
a: 0.0565
